Biological target: Recombinant human NQO2 (Homo sapiens, UniProt P16083)
Assay: Inhibition of recombinant NQO2 enzymatic activity
Format: biochemical
Conditions: IC50 – BSA, absence of BSA; 200 μM NRH, DCPIP

compound: CCN(CC)CCCC(C)Nc1c2ccc(Cl)cc2nc2ccc(OC)cc12 (stereo not shown)
tested.system: Recombinant human NQO2 (Homo sapiens, UniProt P16083)
reading.unit: nM
IC50: 200

###

pIC50 listing for selected molecules.
System: K562 cells
Assay: 96 hour toxicity, XTT assay
Type: cell-based
Conditions: Homo sapiens, K562, 96 h, read-out: 96 hour Toxicity in Cells IC50, K562
pIC50: −log10 of the molar value.

molecule: Nc1c2ccccc2nc2ccccc12
pIC50: 6.00
--
molecule: Cc1ccc(NC(=O)c2ccc(CN3CCN(C)CC3)cc2)cc1Nc1nccc(-c2cccnc2)n1 [Imatinib, reference compound]
pIC50: 6.17
--
molecule: N=C(N)c1ccc(-c2ccc(-c3ccc(C(=N)N)cc3)o2)cc1
pIC50: 4.57
--
molecule: CCN(CC)CCCC(C)Nc1c2ccc(Cl)cc2nc2ccc(OC)cc12 (centres unmarked)
pIC50: 5.40
--
molecule: Oc1ccc(/C=C/c2cc(O)cc(O)c2)cc1 [Resveratrol, reference compound]
pIC50: 4.14

###

Here the recorded pIC50 is given for each entry.
Target: Recombinant human NQO2 (Homo sapiens, UniProt P16083)
Sequence (P16083 1-231): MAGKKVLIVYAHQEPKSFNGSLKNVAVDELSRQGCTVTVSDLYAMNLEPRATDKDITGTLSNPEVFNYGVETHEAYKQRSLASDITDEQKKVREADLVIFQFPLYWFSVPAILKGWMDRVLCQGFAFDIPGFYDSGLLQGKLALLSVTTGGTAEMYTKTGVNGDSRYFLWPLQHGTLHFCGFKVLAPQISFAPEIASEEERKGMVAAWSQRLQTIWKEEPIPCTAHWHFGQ
Test: Inhibition of recombinant NQO2 enzymatic activity
Format: biochemical
Details: read-out: IC50 + BSA; presence of 2 μM BSA; 200 μM NRH, DCPIP
pIC50: −log10 of the molar value.
property.label: pIC50

molecule: Cc1c2ccncc2c(C)c2c1[nH]c1ccccc12 [NSC71795]
tested.system: Recombinant human NQO2 (Homo sapiens, UniProt P16083)
value.reported: 6.62
//
molecule: Nc1cc2c(cc1[N+](=O)[O-])[nH]c1c(-c3ccccc3)nccc12 [NSC620318]
tested.system: Recombinant human NQO2 (Homo sapiens, UniProt P16083)
value.reported: 5.39
//
molecule: O=C1c2c(c3c4ccccc4[nH]c3c3[nH]c4ccccc4c23)C(=O)N1Cc1ccccc1 [NSC628440]
tested.system: Recombinant human NQO2 (Homo sapiens, UniProt P16083)
value.reported: 5.01
//
molecule: Cc1c(-c2ccc(C(=N)N)cc2)oc(-c2ccc(C(=N)N)cc2)c1C [NSC305836]
tested.system: Recombinant human NQO2 (Homo sapiens, UniProt P16083)
value.reported: 6.70
//
molecule: Cc1c2cnccc2c(C)c2c1c1ccccc1n2CCNCc1ccccc1 [NSC164016]
tested.system: Recombinant human NQO2 (Homo sapiens, UniProt P16083)
value.reported: 5.52

###

// values below are reported ΔGexp, experimentally determined binding affinity
Biological target: Recombinant human NQO2 (Homo sapiens, UniProt P16083)
Assay: Inhibition of recombinant NQO2 enzymatic activity
Format: biochemical
Details: derived from IC50 by the Cheng-Prusoff equation
property.label: ΔGexp, experimentally determined binding affinity

molecule: O=C1c2c(c3c4ccccc4[nH]c3c3[nH]c4ccccc4c23)C(=O)N1Cc1ccccc1 [NSC628440]
value.reported: -8.485 kcal/mol
//
molecule: Nc1cc2c(cc1[N+](=O)[O-])[nH]c1c(-c3ccccc3)nccc12 [NSC620318]
value.reported: -9.197 kcal/mol
//
molecule: Cc1c2ccncc2c(C)c2c1[nH]c1ccccc12 [NSC71795]
value.reported: -10.07 kcal/mol
//
molecule: N=C(N)c1ccc(-c2ccc(-c3ccc(C(=N)N)cc3)o2)cc1 [NSC305831]
value.reported: -8.513 kcal/mol
//
molecule: Cc1c(-c2ccc(C(=N)N)cc2)oc(-c2ccc(C(=N)N)cc2)c1C [NSC305836]
value.reported: -10.07 kcal/mol
//
molecule: Cc1c2cnccc2c(C)c2c1c1ccccc1n2CCNCc1ccccc1 [NSC164016]
value.reported: -10.74 kcal/mol
//
molecule: CCN(CC)CCCC(C)Nc1c2ccc(Cl)cc2nc2ccc(OC)cc12 (stereo not shown) [NSC14229, Quinacrine]
value.reported: -9.197 kcal/mol
